# Test system: Acinetobacter baumannii
# ASSAY_REMARKS: Antibacterial activity against Acinetobacter baumannii assessed as inhibition of bacterial growth
# Assay type: functional
Kindly apply the following: TRUE if MIC is less than 30 µg/mL, FALSE in every other case.

MOLECULAR_STRING	CLASS_ASSIGNMENT
Cc1cc(=O)oc2cc(/N=C3/S/C(=C\c4ccc(F)cc4)C(=O)N3CCO)ccc12	TRUE
Cc1cc(=O)oc2cc(/N=C3/S/C(=C\c4ccc(O)c(Br)c4)C(=O)N3CCO)ccc12	FALSE
Cc1cc(=O)oc2cc(/N=C3/S/C(=C\c4cccs4)C(=O)N3CCO)ccc12	TRUE
Cc1cc(=O)oc2cc(/N=C3/S/C(=C\C4CCCCC4)C(=O)N3CCO)ccc12	FALSE
Cc1cc(=O)oc2cc(/N=C3/S/C(=C\c4ncc[nH]4)C(=O)N3CCO)ccc12	TRUE
Cc1cc(=O)oc2cc(/N=C3/S/C(=C\c4ccc([N+](=O)[O-])cc4)C(=O)N3CCO)ccc12	FALSE
